# Subject of test: human F508del-CFTR (Homo sapiens, UniProt P13569, DEL508-508)
# Sequence (P13569 with tags, fused parts or gaps DEL508-508): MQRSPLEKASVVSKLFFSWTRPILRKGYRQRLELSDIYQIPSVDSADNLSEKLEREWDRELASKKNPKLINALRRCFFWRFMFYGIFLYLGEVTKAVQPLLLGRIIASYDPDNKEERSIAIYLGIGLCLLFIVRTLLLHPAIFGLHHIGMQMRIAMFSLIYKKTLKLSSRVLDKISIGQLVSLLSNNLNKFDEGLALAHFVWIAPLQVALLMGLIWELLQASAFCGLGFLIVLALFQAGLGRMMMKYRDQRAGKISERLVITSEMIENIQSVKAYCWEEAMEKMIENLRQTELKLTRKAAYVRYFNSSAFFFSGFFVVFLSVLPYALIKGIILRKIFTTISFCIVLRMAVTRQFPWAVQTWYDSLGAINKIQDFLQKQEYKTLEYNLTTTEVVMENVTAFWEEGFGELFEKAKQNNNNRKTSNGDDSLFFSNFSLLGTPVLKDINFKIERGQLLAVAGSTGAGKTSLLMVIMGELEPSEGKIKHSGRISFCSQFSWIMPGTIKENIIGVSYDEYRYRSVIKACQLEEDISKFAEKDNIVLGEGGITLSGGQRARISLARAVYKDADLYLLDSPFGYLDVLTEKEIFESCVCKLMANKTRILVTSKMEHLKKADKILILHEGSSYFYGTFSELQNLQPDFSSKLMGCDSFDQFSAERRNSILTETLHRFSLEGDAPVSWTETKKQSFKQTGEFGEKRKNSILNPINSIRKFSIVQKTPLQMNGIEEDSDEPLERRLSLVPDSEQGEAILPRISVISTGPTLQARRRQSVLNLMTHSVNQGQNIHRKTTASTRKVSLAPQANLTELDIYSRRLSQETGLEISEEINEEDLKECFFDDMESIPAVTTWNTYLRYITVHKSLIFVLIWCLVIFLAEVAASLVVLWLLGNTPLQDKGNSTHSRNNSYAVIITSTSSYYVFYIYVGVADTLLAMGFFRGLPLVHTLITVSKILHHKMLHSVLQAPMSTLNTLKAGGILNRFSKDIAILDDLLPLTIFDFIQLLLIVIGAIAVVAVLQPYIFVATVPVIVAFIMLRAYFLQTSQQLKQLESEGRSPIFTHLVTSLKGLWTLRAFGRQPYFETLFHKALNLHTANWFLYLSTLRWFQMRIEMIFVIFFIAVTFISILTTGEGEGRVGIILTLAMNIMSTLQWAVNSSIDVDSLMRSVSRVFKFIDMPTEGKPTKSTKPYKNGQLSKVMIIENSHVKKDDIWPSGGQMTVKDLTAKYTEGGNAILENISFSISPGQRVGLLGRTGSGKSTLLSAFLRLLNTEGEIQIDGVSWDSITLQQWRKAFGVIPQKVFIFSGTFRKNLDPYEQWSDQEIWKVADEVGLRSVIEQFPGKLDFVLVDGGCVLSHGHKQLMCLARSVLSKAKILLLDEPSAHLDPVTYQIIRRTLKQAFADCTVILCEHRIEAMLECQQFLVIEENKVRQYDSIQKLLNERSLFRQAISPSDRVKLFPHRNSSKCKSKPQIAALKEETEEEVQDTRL
# Run description: F508del-CFTR cell surface expression (corrector activity), DiscoveRx ß-galactosidase complementation chemiluminescence assay in recombinant U2OS cell line
# Measurement conditions: U2OS, in relation to Emax of corrector lumacaftor (=100%); arithmetic mean values
Property: Emax (%)

# Molecule, Measure unit, Numeric readout
rows = [
    ("COc1cc(CCNC(=O)[C@@H]2CC(=O)N(C)[C@@H](CC(C)C)C(=O)N(C)[C@H](CC(F)(F)F)C(=O)N[C@H](Cc3ccccc3)COc3cc(C)nc(OC)c3C(=O)N2)on1 [Example 791]", "%", 345),
    ("CC(C)C[C@H]1C(=O)N2CCCC[C@@H]2C(=O)N[C@H](Cc2ccccc2)COc2cnc3ccccc3c2C(=O)N[C@H](C(=O)NCCc2ccc(-n3nccn3)cc2)CC(=O)N1C [Example 463]", "%", 269),
    ("COc1nccc2c1C(=O)N[C@H](C(=O)NCCc1nc(C3CC3)no1)CC(=O)N(C)[C@@H](CC(C)C)C(=O)N(C)[C@@H](COCc1ccccc1)C(=O)N[C@H](Cc1ccccc1)CO2 [Example 724]", "%", 345),
    ("COc1cc(CCNC(=O)[C@@H]2CC(=O)N(C)[C@@H](CC(C)C)C(=O)N3CCCC[C@@H]3C(=O)N[C@H](Cc3ccccc3)COc3ccc4cnc(C)cc4c3C(=O)N2)on1 [Example 796]", "%", 321),
    ("COc1nccc2c1C(=O)N[C@H](C(=O)NCCc1cc(C3CC3)no1)CC(=O)N(C)[C@@H](CC(C)C)C(=O)N1CCC3(CC3)C[C@@H]1C(=O)N[C@H](Cc1ccccc1)CO2 (single isomer, unassigned) [Example 669]", "%", 230),
]

###

Consider the following compounds and their measured EC50 readings.
# Subject of test: human F508del-CFTR (Homo sapiens, UniProt P13569, DEL508-508)
# Run description: F508del-CFTR cell surface expression (corrector activity), DiscoveRx ß-galactosidase complementation chemiluminescence assay in recombinant U2OS cell line
# Measurement conditions: EC50, F508del-CFTR cell surface expression, U2OS cell line, 16h compound incubation; geomean values

# Compound, EC50 [nM]
measured = [
    ("COc1cccc(CCNC(=O)[C@@H]2CC(=O)N(C)[C@@H](CC(C)C)C(=O)N3CCCC[C@@H]3C(=O)N[C@H](Cc3ccccc3)COc3ccnc(OC)c3C(=O)N2)c1 [Example 180]", 388),
    ("Cc1cc(CCNC(=O)[C@@H]2CC(=O)N(C)[C@@H](CC(C)C)C(=O)N(C)C3(CC3)C(=O)N[C@H](Cc3ccccc3)COc3cnc4ccc(F)cc4c3C(=O)N2)no1 [Example 141]", 313),
    ("Cc1ccc(CCNC(=O)[C@@H]2CC(=O)N(C)[C@@H](CC(C)C)C(=O)N3CCOC[C@@H]3C(=O)N[C@H](Cc3ccccc3)COc3cnc4ccccc4c3C(=O)N2)cc1 [Example 60]", 662),
    ("CC(C)C[C@H]1C(=O)N2CCCC[C@@H]2C(=O)N[C@H](Cc2ccccc2)COc2ccc3ncn(C)c3c2C(=O)N[C@H](C(=O)NCCc2cccc(-n3nccn3)c2)CC(=O)N1C (mixture of isomers) [Example 28]", 603),
    ("CC(C)C[C@H]1C(=O)N(CCC2CCCCC2)CC(=O)N[C@H](Cc2ccccc2)COc2ccc3ccccc3c2C(=O)N[C@H](C(=O)NCCc2ccc3c(c2)OCO3)CC(=O)N1C [Example 267]", 107),
]

###

The following compounds are shown together with reported Emax values.
# Subject of test: human F508del-CFTR (Homo sapiens, UniProt P13569, DEL508-508)
# Run description: F508del-CFTR cell surface expression (corrector activity), DiscoveRx ß-galactosidase complementation chemiluminescence assay in recombinant U2OS cell line
# Measurement conditions: U2OS, in relation to the Emax of the corrector lumacaftor (=100%); U2OS cell line, 16h compound incubation; arithmetic mean values

# Chem smiles, Emax / %
rows = [
    ("CC(C)C[C@H]1C(=O)N(C)CC(=O)N[C@H](Cc2ccccc2)COc2cc3c(cc2C(=O)N[C@H](C(=O)NCCc2ccc4c(c2)OCO4)CC(=O)N1C)OCO3", 141),
    ("[2H]C([2H])([2H])Oc1cccc(CCNC(=O)[C@@H]2CC(=O)N(C)[C@@H](CC(C)C)C(=O)N(CCC3CCCCC3)CC(=O)N[C@H](Cc3ccccc3)COc3ccc4c(c3C(=O)N2)OCO4)c1", 282),
    ("COc1cccc(CCNC(=O)[C@@H]2CC(=O)N(C)[C@@H](CC(C)C)C(=O)N(CCC3CCCCC3)CC(=O)N[C@H](Cc3ccccc3)COc3cccc(OC)c3C(=O)N2)c1", 214),
    ("COc1cccc2c1C(=O)N[C@H](C(=O)NCCc1ccc3c(c1)OCO3)CC(=O)N(C)[C@@H](CC(C)C)C(=O)N(CCC1CCCCC1)CC(=O)N[C@H](Cc1ccccc1)CO2", 243),
    ("CC(C)C[C@H]1C(=O)N2CCN(C3CC3)C[C@@H]2C(=O)N[C@H](Cc2ccccc2)COc2cnc3ccccc3c2C(=O)N[C@H](C(=O)NCCc2ccc3c(c2)OCO3)CC(=O)N1C", 314),
]

###

# Subject of test: human F508del-CFTR (Homo sapiens, UniProt P13569, DEL508-508)
# Run description: F508del-CFTR cell surface expression (corrector activity), DiscoveRx ß-galactosidase complementation chemiluminescence assay in recombinant U2OS cell line
# Measurement conditions: U2OS, in relation to the Emax of the corrector lumacaftor (=100%); U2OS cells, 16h compound incubation; arithmetic mean
// Emax lookup, one value per entry
Property: Emax (%)

# Molecule, Property, Numeric readout
rows = [
    ("COc1noc(CCNC(=O)[C@@H]2CC(=O)N(C)[C@@H](CC(C)C)C(=O)N(C)[C@H](Cc3nc(C(F)(F)F)no3)C(=O)N[C@H](Cc3ccccc3)COc3ccc4cnc(C)cc4c3C(=O)N2)n1 [Example 918]", "Emax", 462),
    ("COc1noc(CCNC(=O)[C@@H]2CC(=O)N(C)[C@@H](CC(C)C)C(=O)N3CCCC[C@@H]3C(=O)N[C@H](Cc3ccccc3)COc3ccc4ncc(F)cc4c3C(=O)N2)n1 [Example 821]", "Emax", 392),
    ("CC(C)C[C@H]1C(=O)N2CCCC[C@@H]2C(=O)N[C@H](Cc2ccccc2)COc2ccc3ncc(F)cc3c2C(=O)N[C@H](C(=O)NCCn2nnc(C3CC3)n2)CC(=O)N1C [Example 829]", "Emax", 320),
    ("COc1noc(CCNC(=O)[C@@H]2CC(=O)N(C)[C@@H](CC(C)C)C(=O)N(C)C3(CC3)C(=O)N[C@H](Cc3ccccc3)COc3ccc4ncc(F)cc4c3C(=O)N2)n1 [Example 911]", "Emax", 341),
    ("COc1nc(C)cc2c1C(=O)N[C@H](C(=O)NC[C@@H](O)c1ccccc1)CC(=O)N(C)[C@@H](CC(C)C)C(=O)N(C)[C@H](CC(C)C)C(=O)N[C@H](Cc1ccccc1)CO2 [Example 828]", "Emax", 317),
    ("COc1cc2c(c(OC)n1)C(=O)N[C@H](C(=O)NCCc1cc(C3CC3)no1)CC(=O)N(C)[C@@H](CC(C)C)C(=O)N1CCCC[C@@H]1C(=O)N[C@H](Cc1ccccc1)CO2 [Example 870]", "Emax", 316),
    ("COc1cc(CCNC(=O)[C@@H]2CC(=O)N(C)[C@@H](CC(C)C)C(=O)N(C)[C@]3(C[C@H](OC)C3)C(=O)N[C@H](Cc3ccccc3)COc3ccc4ncc(F)cc4c3C(=O)N2)on1 [Example 926]", "Emax", 416),
    ("CC(C)C[C@H]1C(=O)N(C)[C@H](Cc2nc(-c3ccc(F)cn3)no2)C(=O)N[C@H](Cc2ccccc2)COc2ccc3ncc(F)cc3c2C(=O)N[C@H](C(=O)NC[C@@H](O)c2nc(C3CC3)no2)CC(=O)N1C [Example 892]", "Emax", 442),
    ("COc1nccc2c1C(=O)N[C@H](C(=O)NCCc1noc(C3CC3)n1)CC(=O)N(C)[C@@H](CC(C)C)C(=O)N(C)[C@H](Cc1nc(-c3ccccc3)no1)C(=O)N[C@H](Cc1ccccc1)CO2 [Example 859]", "Emax", 342),
    ("COc1noc(CCNC(=O)[C@@H]2CC(=O)N(C)[C@@H](CC(C)C)C(=O)N(C)[C@H](CC(F)F)C(=O)N[C@H](Cc3ccccc3)COc3ccc4cnc(C)cc4c3C(=O)N2)c1F [Example 970]", "Emax", 463),
]

###

# Subject of test: human F508del-CFTR (Homo sapiens, UniProt P13569, DEL508-508)
# Run description: F508del-CFTR cell surface expression (corrector activity), DiscoveRx ß-galactosidase complementation chemiluminescence assay in recombinant U2OS cell line;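 note: U2OS cells co-expressing ProLink-tagged F508del-CFTR and a membrane-anchored enzyme acceptor, where more surface CFTR restores β-galactosidase activity measured by chemiluminescence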
# Measurement conditions: U2OS, in relation to the Emax of the corrector lumacaftor (=100%); U2OS cells, 16h compound incubation; arithmetic mean
Binning of Emax into classes: low end = under 300%, middle = from 300% up to 400%, high end = 400% and over

# Chem smiles, Subject of test, Group label
data = [
    ("COc1noc(CCNC(=O)[C@@H]2CC(=O)N(C)[C@@H](CC(C)C)C(=O)N(C)[C@H](CC(F)F)C(=O)N[C@H](Cc3ccccc3)COc3ccc4ncc(F)cc4c3C(=O)N2)n1", "human F508del-CFTR (Homo sapiens, UniProt P13569, DEL508-508)", "high end"),
    ("CC(C)C[C@H]1C(=O)N(C)[C@H](Cc2nc(C(F)(F)F)no2)C(=O)N[C@H](Cc2ccccc2)COc2ccc3ncc(F)cc3c2C(=O)N[C@H](C(=O)NCCCOC(F)(F)F)CC(=O)N1C", "human F508del-CFTR (Homo sapiens, UniProt P13569, DEL508-508)", "low end"),
    ("COCCc1ccc(-c2noc(C[C@@H]3C(=O)N[C@H](Cc4ccccc4)COc4ccnc(OC)c4C(=O)N[C@H](C(=O)NCCc4noc(C5CC5)n4)CC(=O)N(C)[C@@H](CC(C)C)C(=O)N3C)n2)cc1", "human F508del-CFTR (Homo sapiens, UniProt P13569, DEL508-508)", "high end"),
    ("COc1noc(CCNC(=O)[C@@H]2CC(=O)N(C)[C@@H](CC(C)C)C(=O)N(C)[C@@H](CC(F)(F)F)C(=O)N[C@H](Cc3ccccc3)COc3ccc4cnc(C)cc4c3C(=O)N2)n1", "human F508del-CFTR (Homo sapiens, UniProt P13569, DEL508-508)", "low end"),
    ("COc1nc(C)cc2c1C(=O)N[C@H](C(=O)NCCn1ncc(C#N)n1)CC(=O)N(C)[C@@H](CC(C)C)C(=O)N1CCCC[C@@H]1C(=O)N[C@H](Cc1ccccc1)CO2", "human F508del-CFTR (Homo sapiens, UniProt P13569, DEL508-508)", "low end"),
    ("CC(C)C[C@H]1C(=O)N(C)[C@H](C)C(=O)N[C@H](Cc2ccccc2)COc2ccc3ncc(F)cc3c2C(=O)N[C@H](C(=O)NCCc2cc(C3CC3)on2)CC(=O)N1C", "human F508del-CFTR (Homo sapiens, UniProt P13569, DEL508-508)", "middle"),
    ("CC(C)C[C@H]1C(=O)N(C)[C@H](Cc2nc(-c3ccc(F)cn3)no2)C(=O)N[C@H](Cc2ccccc2)COc2cnc3ccc(F)cc3c2C(=O)N[C@H](C(=O)NCCCOC(F)(F)F)CC(=O)N1C", "human F508del-CFTR (Homo sapiens, UniProt P13569, DEL508-508)", "low end"),
    ("COc1nccc2c1C(=O)N[C@H](C(=O)NCCCOC(F)F)CC(=O)N(C)[C@@H](CC(C)C)C(=O)N1CCCC[C@@H]1C(=O)N[C@H](Cc1ccccc1)CO2", "human F508del-CFTR (Homo sapiens, UniProt P13569, DEL508-508)", "low end"),
    ("COc1noc(CCNC(=O)[C@@H]2CC(=O)N(C)[C@@H](CC(C)C)C(=O)N(C)[C@H](Cc3nc(C(F)(F)F)no3)C(=O)N[C@H](Cc3ccccc3)COc3cc(C)nc(OC)c3C(=O)N2)c1F", "human F508del-CFTR (Homo sapiens, UniProt P13569, DEL508-508)", "high end"),
    ("Cc1cc2c3c(ccc2cn1)OC[C@@H](Cc1ccccc1)NC(=O)[C@@H](Cc1nc(-c2ccc(F)cn2)no1)N(C)C(=O)[C@H](CC(C)C)N(C)C(=O)C[C@@H](C(=O)NCCn1nnc(C2CC2)n1)NC3=O", "human F508del-CFTR (Homo sapiens, UniProt P13569, DEL508-508)", "high end"),
    ("CC(C)C[C@H]1C(=O)N2CCCC[C@@H]2C(=O)N[C@H](Cc2ccccc2)COc2ccc3ncc(F)cc3c2C(=O)N[C@H](C(=O)NCCc2cnn(C3CC3)n2)CC(=O)N1C", "human F508del-CFTR (Homo sapiens, UniProt P13569, DEL508-508)", "low end"),
    ("COc1cc(CCNC(=O)[C@@H]2CC(=O)N(C)[C@@H](CC(C)C)C(=O)N(C)C3(CC3)C(=O)N[C@H](Cc3ccccc3)COc3ccc4ncc(F)cc4c3C(=O)N2)on1", "human F508del-CFTR (Homo sapiens, UniProt P13569, DEL508-508)", "middle"),
    ("COc1cc(CCNC(=O)[C@@H]2CC(=O)N(C)[C@@H](CC(C)C)C(=O)N(C)[C@H](CCOc3ccccc3)C(=O)N[C@H](Cc3ccccc3)COc3ccnc(OC)c3C(=O)N2)on1", "human F508del-CFTR (Homo sapiens, UniProt P13569, DEL508-508)", "middle"),
    ("COc1noc(CCNC(=O)[C@@H]2CC(=O)N(C)[C@@H](CC(C)C)C(=O)N3CCCC[C@@H]3C(=O)N[C@H](Cc3ccccc3)COc3cc(C)c4ncccc4c3C(=O)N2)n1", "human F508del-CFTR (Homo sapiens, UniProt P13569, DEL508-508)", "middle"),
]
